Biological target: hNav1.7 (Homo sapiens (Human), UniProt Q15858)
Sequence (Q15858 other isoform, or with tags, fused parts or gaps): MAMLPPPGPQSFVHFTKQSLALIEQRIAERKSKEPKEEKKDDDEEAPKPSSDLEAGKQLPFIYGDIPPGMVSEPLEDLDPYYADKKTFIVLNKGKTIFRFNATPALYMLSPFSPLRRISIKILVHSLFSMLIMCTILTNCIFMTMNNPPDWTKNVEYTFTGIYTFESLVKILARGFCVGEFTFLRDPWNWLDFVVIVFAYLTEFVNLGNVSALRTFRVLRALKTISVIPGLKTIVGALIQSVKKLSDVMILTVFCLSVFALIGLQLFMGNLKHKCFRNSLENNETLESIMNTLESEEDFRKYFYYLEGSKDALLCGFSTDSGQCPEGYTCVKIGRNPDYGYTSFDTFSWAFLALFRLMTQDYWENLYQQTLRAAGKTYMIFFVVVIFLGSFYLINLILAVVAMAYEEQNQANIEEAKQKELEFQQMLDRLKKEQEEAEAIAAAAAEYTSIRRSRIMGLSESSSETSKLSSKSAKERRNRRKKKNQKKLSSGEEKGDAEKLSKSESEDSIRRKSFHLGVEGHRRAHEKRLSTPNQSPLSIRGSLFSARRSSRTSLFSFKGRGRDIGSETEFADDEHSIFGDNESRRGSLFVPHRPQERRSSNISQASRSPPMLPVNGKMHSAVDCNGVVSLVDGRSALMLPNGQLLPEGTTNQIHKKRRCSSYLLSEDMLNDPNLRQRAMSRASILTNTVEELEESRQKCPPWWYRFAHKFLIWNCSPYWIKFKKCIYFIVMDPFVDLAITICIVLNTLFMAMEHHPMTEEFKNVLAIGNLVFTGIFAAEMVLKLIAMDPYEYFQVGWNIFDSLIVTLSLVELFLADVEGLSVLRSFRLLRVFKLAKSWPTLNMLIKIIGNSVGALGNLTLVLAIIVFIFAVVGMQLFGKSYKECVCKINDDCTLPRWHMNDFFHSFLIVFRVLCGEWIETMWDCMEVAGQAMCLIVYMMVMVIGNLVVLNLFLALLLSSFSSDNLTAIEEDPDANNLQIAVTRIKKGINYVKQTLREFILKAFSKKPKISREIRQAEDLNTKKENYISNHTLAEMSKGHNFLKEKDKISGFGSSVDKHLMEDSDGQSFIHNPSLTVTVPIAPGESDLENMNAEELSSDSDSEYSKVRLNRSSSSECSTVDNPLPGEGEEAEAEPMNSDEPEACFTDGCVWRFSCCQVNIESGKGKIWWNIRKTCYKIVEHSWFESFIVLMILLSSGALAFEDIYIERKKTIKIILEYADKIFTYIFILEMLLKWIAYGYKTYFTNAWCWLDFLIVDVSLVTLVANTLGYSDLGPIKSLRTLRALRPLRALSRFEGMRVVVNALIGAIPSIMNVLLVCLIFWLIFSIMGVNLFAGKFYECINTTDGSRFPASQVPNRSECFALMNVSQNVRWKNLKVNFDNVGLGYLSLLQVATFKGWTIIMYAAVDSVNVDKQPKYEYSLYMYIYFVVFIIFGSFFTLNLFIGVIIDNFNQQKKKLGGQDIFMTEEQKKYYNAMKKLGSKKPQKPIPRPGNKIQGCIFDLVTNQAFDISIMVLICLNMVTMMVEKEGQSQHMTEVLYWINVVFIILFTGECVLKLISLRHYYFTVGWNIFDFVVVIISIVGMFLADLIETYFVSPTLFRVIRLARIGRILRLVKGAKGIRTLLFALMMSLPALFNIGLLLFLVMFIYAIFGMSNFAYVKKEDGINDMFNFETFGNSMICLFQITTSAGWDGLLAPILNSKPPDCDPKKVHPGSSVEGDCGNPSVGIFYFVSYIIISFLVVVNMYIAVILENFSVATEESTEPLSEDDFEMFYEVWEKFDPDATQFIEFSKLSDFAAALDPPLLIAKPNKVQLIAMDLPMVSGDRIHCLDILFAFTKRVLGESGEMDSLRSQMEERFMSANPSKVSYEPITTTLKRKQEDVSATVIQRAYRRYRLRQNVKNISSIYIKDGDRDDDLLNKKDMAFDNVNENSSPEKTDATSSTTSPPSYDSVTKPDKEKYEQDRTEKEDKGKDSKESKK
Sequence (Q07699 19-218 partner): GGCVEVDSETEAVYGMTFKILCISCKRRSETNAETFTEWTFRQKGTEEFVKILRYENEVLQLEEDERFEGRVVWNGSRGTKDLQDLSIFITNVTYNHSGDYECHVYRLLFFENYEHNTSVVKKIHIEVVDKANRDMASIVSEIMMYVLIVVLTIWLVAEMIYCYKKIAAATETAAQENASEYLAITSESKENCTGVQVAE
Experiment: Tritiated sulfonamide competitive binding to membranes from cells expressing hNav1.7 and the β1 subunit
Settings: read-out: Ligand Binding Assay; 100 pM [3H]compound, membranes with hNav1.7 and β1 subunit, 18 h, room temperature
Counter-ions that a name gives are not always drawn.
Binary call on IC50 with cut-off 100 nM: strictly below means rule met, and equality or higher means rule not met.

Examples with answers:
1. COc1ccc(CN2CCC[C@@H](Oc3cc(F)c(C(=O)NS(C)(=O)=O)cc3C3CC3)C2)c(C)c1 [Example 434, trifluoroacetic acid salt] | rule met
2. O=C(NS(=O)(=O)C1CC1)c1cc(C2CC2)c(OCC2CCN(Cc3cc(C(F)(F)F)cc(Cl)c3F)CC2)cc1F [Example 582] | rule met
3. CS(=O)(=O)NC(=O)c1cc(C2CC2)c(OCC2CN([C@H](c3ccccc3)c3cccnc3)C2)cc1F [Example 81] | rule not met
4. CS(=O)(=O)NC(=O)c1cc(C2CC2)c(OCC2CCN(S(C)(=O)=O)CC2)cc1F [Example 395] | rule not met
5. CS(=O)(=O)NC(=O)c1cc(C2CC2)c(OCC2CCN([C@H](CO)c3cc(Cl)cc(Cl)c3)CC2)cc1F [Example 267] | rule met

// query For CC1(COc2cc(F)c(C(=O)NS(C)(=O)=O)cc2C2CC2)CCN(Cc2cc(Cl)cc(C(F)(F)F)c2)CC1 [Example 140] , is the recorded IC50 below the cut-off of 100 nM?
// result rule met

---

Target: hNav1.7 (Homo sapiens (Human), UniProt Q15858)
Test: Tritiated sulfonamide competitive binding to membranes from cells expressing hNav1.7 and the β1 subunit;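 also: Filter-bound radioactivity counted by liquid scintillation, nonspecific binding defined with excess unlabelled ligand, IC50 fitted to percent inhibition of specific binding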
Conditions: read-out: Ligand Binding Assay; 100 pM [3H]compound, membranes with hNav1.7 and β1 subunit, 18 h, room temperature
Counter-ions that a name gives are not always drawn.
List of pIC50 values.
The meaning of pIC50 here: minus log10 of the concentration in molar units.

Known pIC50 results, listed for orientation:
1) CCS(=O)(=O)NC(=O)c1cc(C2CC2)c(OCC2(C)CN([C@H](C)c3cc(Cl)cc(Cl)c3)C2)cc1F (single isomer, unassigned) | 8.46
2) CS(=O)(=O)NC(=O)c1cc(C2CC2)c(OCC2CN([C@@H](c3ccccc3)c3ccc(S(C)(=O)=O)cc3)C2)cc1F | 5.97
3) C[C@H](c1ccc(F)cc1Cl)N1CCC(COc2cc(F)c(C(=O)NS(C)(=O)=O)cc2C2CC2)CC1 | 7.92

Data point: `CS(=O)(=O)NC(=O)c1cc(C2CC2)c(OCC2CCN(c3cc(Cl)cc(Cl)c3)CC2)cc1F` ; pIC50 = 8.54

Data point: O=C(NS(=O)(=O)C1CC1)c1cc(C2CC2)c(OC[C@@H]2C[C@H]3CC[C@@H](C2)N3Cc2cc(C(F)(F)F)cc(Cl)c2F)cc1F [Example 396, trifluoroacetic acid salt] ; pIC50 = 7.83

Data point: CS(=O)(=O)NC(=O)c1cc(C2CC2)c(OCC2CCN(C(c3cc(Cl)cc(Cl)c3)C(F)(F)F)CC2)cc1F (stereo not shown) ; pIC50 = 8.72

Data point: `O=C(NS(=O)(=O)N1CCC1)c1cc(C2CC2)c(O[C@H]2CCN(Cc3ccccc3)C2)cc1F` ; pIC50 = 5.34
